Measured log10 IC50 by item
system: ES2(ovarian) cells; test: MTT assay ES2; assay type: cell-based, human; details: ES2 cells
MEASURED ATTRIBUTE: log10 IC50 (log10 of the value in µg/mL)

>  <COMPOUND>
CC=C(C)C(=O)OC1C(OC(=O)C(C)=CC)C2(CO)C(O)CC3(C)C(=CCC4C5(C)CCC(O)C(C)(CO)C5CCC43C)C2CC1(C)C (stereo not shown)

>  <STUDY TARGET>
ES2(ovarian) cells

>  <log10 IC50>
1.54

$$$$
>  <COMPOUND>
C/C=C(/C)C(=O)O[C@H]1[C@H](O)[C@@]2(COC(=O)C(C)CC)C(CC1(C)C)C1=CCC3[C@@]4(C)CC[C@H](O)C(C)(C)C4CC[C@@]3(C)[C@]1(C)[C@@H](O)[C@H]2O (stereo partly shown)

>  <STUDY TARGET>
ES2(ovarian) cells

>  <log10 IC50>
1.81

$$$$
>  <COMPOUND>
CC1(C)CC2C3=CCC4C5(C)CCC(OC6OC(C(=O)O)C(O)C(OC7OCC(O)C(O)C7O)C6OC6OC(CO)C(O)C(O)C6O)C(C)(C)C5CCC4(C)C3(C)CC(O)C2(CO)C(O)C1OC1OCC(OC(=O)c2ccccc2)C(OC(=O)c2ccccc2)C1O (stereo not shown)

>  <STUDY TARGET>
ES2(ovarian) cells

>  <log10 IC50>
1.08

$$$$
>  <COMPOUND>
C/C=C(/C)C(=O)O[C@H]1[C@H](OC(=O)/C(C)=C\C)[C@@]2(CO)C(CC1(C)C)C1=CCC3[C@@]4(C)CC[C@H](O[C@@H]5OC(C(=O)O)[C@@H](O)C(O[C@@H]6O[C@@H](CO)C(O)C6O)C5O[C@@H]5OC(CO)[C@H](O)C(O)C5O)C(C)(C)C4CC[C@@]3(C)[C@]1(C)[C@@H](O)[C@H]2O (stereo partly shown)

>  <STUDY TARGET>
ES2(ovarian) cells

>  <log10 IC50>
0.64

$$$$
>  <COMPOUND>
CC=C(C)C(=O)OC1C(OC(=O)C=Cc2ccccc2)C23C(O)CC4(C)C5(C)CCC6C(C)(C)C(OC7OC(C(=O)O)C(O)C(OC8OC(CO)C(O)C(O)C8OC8OC(C)C(O)C(O)C8OC8OC(C)C(O)C(O)C8O)C7OC7OC(CO)C(O)C(O)C7O)CCC6(C)C5CCC4(OC2O)C3CC1(C)C (stereo not shown)

>  <STUDY TARGET>
ES2(ovarian) cells

>  <log10 IC50>
0.90

$$$$
>  <COMPOUND>
C/C=C(/C)C(=O)O[C@H]1[C@H](OC(=O)C(C)C)[C@@]2(CO)C(CC1(C)C)C1=CCC3[C@@]4(C)CC[C@H](O)C(C)(C)C4CC[C@@]3(C)[C@]1(C)[C@@H](O)[C@H]2O (stereo partly shown)

>  <STUDY TARGET>
ES2(ovarian) cells

>  <log10 IC50>
1.30

$$$$
>  <COMPOUND>
CC1(C)CC2C3=CCC4C5(C)CCC(OC6OC(C(=O)O)C(O)C(OC7OCC(O)C(O)C7O)C6OC6OC(CO)C(O)C(O)C6O)C(C)(C)C5CCC4(C)C3(C)CC(O)C2(CO)C(O)C1OC(=O)c1ccccc1 (stereo not shown)

>  <STUDY TARGET>
ES2(ovarian) cells

>  <log10 IC50>
1.30

$$$$
>  <COMPOUND>
C/C=C(/C)C(=O)O[C@H]1[C@H](OC(C)=O)C(C)(C)CC2C3=CCC4[C@@]5(C)CC[C@H](O)C(C)(C)C5CC[C@@]4(C)[C@]3(C)C[C@@H](O)[C@]21CO (stereo partly shown)

>  <STUDY TARGET>
ES2(ovarian) cells

>  <log10 IC50>
1.60

$$$$
>  <COMPOUND>
CC1OC(OC2C(OC3C(OC4C(O)C(C(=O)O)OC(OC5CCC6(C)C(CCC7(C)C6CCC68OC(O)C9(C(O)CC76C)C(OC(=O)C=Cc6ccccc6)C(OC(=O)c6ccccc6)C(C)(C)CC98)C5(C)C)C4OC4OC(CO)C(O)C(O)C4O)OC(CO)C(O)C3O)OC(C)C(O)C2O)C(O)C(O)C1O (stereo not shown) [Mb3]

>  <STUDY TARGET>
ES2(ovarian) cells

>  <log10 IC50>
0.90

$$$$
>  <COMPOUND>
CC=C(C)C(=O)OC1C(OC(=O)c2ccccc2)C(C)(C)CC2C3=CCC4C5(C)CCC(OC6OC(C(=O)O)C(O)C(OC7OCC(O)C(O)C7O)C6OC6OC(CO)C(O)C(O)C6O)C(C)(C)C5CCC4(C)C3(C)CC(O)C21CO (stereo not shown)

>  <STUDY TARGET>
ES2(ovarian) cells

>  <log10 IC50>
0.90

$$$$
>  <COMPOUND>
CC=C(C)C(=O)OC1C(OC(=O)c2ccccc2)C(C)(C)CC2C13C(O)CC1(C)C4(C)CCC5C(C)(C)C(OC6OC(C(=O)O)C(O)C(OC7OC(CO)C(O)C(O)C7OC7OC(C)C(O)C(O)C7OC7OC(C)C(O)C(O)C7O)C6OC6OC(CO)C(O)C(O)C6O)CCC5(C)C4CCC21OC3O (stereo not shown)

>  <STUDY TARGET>
ES2(ovarian) cells

>  <log10 IC50>
1.00

$$$$
>  <COMPOUND>
CC=C(C)C(=O)OC1C(OC(=O)C(C)=CC)C2(CO)C(CC1(C)C)C1=CCC3C4(C)CCC(O)C(C)(CO)C4CCC3(C)C1(C)C(O)C2O (stereo not shown)

>  <STUDY TARGET>
ES2(ovarian) cells

>  <log10 IC50>
1.54

$$$$
>  <COMPOUND>
C/C=C(/C)C(=O)O[C@H]1[C@H](OC(=O)c2ccccc2)[C@@]2(CO)C(CC1(C)C)C1=CCC3[C@@]4(C)CC[C@H](O)C(C)(C)C4CC[C@@]3(C)[C@]1(C)[C@@H](O)[C@H]2O (stereo partly shown)

>  <STUDY TARGET>
ES2(ovarian) cells

>  <log10 IC50>
1.60

$$$$
>  <COMPOUND>
CC1OC(OC2C(OC3C(OC4C(O)C(C(=O)O)OC(OC5CCC6(C)C(CCC7(C)C6CCC68OC(O)C9(C(O)CC76C)C(OC(=O)C=Cc6ccccc6)C(OC(=O)c6ccccc6)C(C)(C)CC98)C5(C)C)C4OC4OC(CO)C(O)C(O)C4O)OC(CO)C(O)C3O)OC(C)C(O)C2O)C(O)C(O)C1O (stereo not shown) [Mb4]

>  <STUDY TARGET>
ES2(ovarian) cells

>  <log10 IC50>
1.18

$$$$
>  <COMPOUND>
C/C=C(/C)C(=O)O[C@H]1[C@H](OC(=O)/C(C)=C\C)[C@@]2(CO)C(CC1(C)C)C1=CCC3[C@@]4(C)CC[C@H](O)C(C)(C)C4CC[C@@]3(C)[C@]1(C)C[C@H]2O (stereo partly shown)

>  <STUDY TARGET>
ES2(ovarian) cells

>  <log10 IC50>
1.30

$$$$
>  <COMPOUND>
CC(C)C(=O)OC1C(OC(=O)c2ccccc2)C(C)(C)CC2C3=CCC4C5(C)CCC(OC6OC(C(=O)O)C(O)C(OC7OCC(O)C(O)C7O)C6OC6OC(CO)C(O)C(O)C6O)C(C)(C)C5CCC4(C)C3(C)CC(O)C21CO (stereo not shown)

>  <STUDY TARGET>
ES2(ovarian) cells

>  <log10 IC50>
1.04

$$$$
